- RUN DESCRIPTION: Oral bioavailability in monkey at 2.5 mg/kg
- Format: ADME, organism-based, Macaca mulatta
- RECORDED CONDITIONS: rhesus monkey, in vivo
MEASUREMENT NAME: bioavailability (%)

* CC(C)NC(C)(C)c1nc2c(C(N)=O)cccc2[nH]1 | 12.6

---

- RUN DESCRIPTION: Clearance in monkey at 2.5 mg/kg, iv and 2.5 mg/kg, po
- Type: ADME, organism-based, Macaca mulatta
- RECORDED CONDITIONS: rhesus monkey, in vivo
MEASUREMENT NAME: clearance (mL/min/kg)

* CC(C)NC(C)(C)c1nc2c(C(N)=O)cccc2[nH]1 | 23.3

Data origin: ChEMBL document CHEMBL1155103
